Source of measurements: ChEMBL document CHEMBL4706527

biological target: Proto-oncogene tyrosine-protein kinase Src (Homo sapiens, UniProt P12931)
Sequence (P12931 2-536 limits assumed): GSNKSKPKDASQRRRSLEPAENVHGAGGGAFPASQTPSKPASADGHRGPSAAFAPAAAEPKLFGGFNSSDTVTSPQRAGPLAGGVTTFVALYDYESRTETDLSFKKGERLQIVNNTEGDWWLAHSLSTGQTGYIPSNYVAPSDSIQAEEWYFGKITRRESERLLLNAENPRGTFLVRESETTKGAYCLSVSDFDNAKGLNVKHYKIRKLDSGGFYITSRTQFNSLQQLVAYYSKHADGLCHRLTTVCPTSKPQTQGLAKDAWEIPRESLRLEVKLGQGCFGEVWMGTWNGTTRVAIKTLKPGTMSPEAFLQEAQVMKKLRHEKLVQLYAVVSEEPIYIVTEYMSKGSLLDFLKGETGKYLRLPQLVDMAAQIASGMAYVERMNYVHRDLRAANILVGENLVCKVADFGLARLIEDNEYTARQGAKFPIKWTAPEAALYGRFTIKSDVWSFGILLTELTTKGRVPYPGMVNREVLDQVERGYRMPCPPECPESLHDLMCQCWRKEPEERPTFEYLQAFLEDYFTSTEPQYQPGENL
METRIC NAME: IC50 (nM)
Only the number, expressed in nM, is required.

Looking up COc1cc2c(Oc3ccc(NC(=O)NN4C(=O)CSC4c4c(F)cccc4F)cc3)ccnc2cc1OC1CCN(C(=O)NC(C)C)CC1 (stereo unspecified) , I found its IC50 recorded as 421

###

tested on: HT-29; assay: cells; details: Homo sapiens
METRIC NAME: pIC50
The scale used: pIC50 is minus the common logarithm of the concentration in molar units.

# example entries with known answers
>  <COMPOUND>
COc1cc2c(Oc3ccc(NC(=O)NN4C(=O)CSC4c4ccccc4F)cc3)ccnc2cc1OC1CCN(C(=O)NC(C)C)CC1 (centres undefined)

>  <SYSTEM NAME>
HT-29

>  <pIC50>
6.39

$$$$
>  <COMPOUND>
COc1cc2c(Sc3ccc(NC(=O)NN4C(=O)CSC4c4c(F)cccc4F)cc3)cc(N)nc2cc1OC1CCN(C(=O)NC(C)C)CC1 (centres undefined)

>  <SYSTEM NAME>
HT-29

>  <pIC50>
5.25

$$$$
>  <COMPOUND>
COc1cc2c(Oc3ccc(NC(=O)NN4C(=O)CSC4c4cccc(F)c4F)cc3)ccnc2cc1OC1CCN(C(=O)NC(C)C)CC1 (centres undefined)

>  <SYSTEM NAME>
HT-29

>  <pIC50>
6.10

$$$$
>  <COMPOUND>
COc1cc2c(Oc3ccc(NC(=O)NN4C(=O)CSC4c4ccc(F)cc4)cc3)ccnc2cc1OC1CCN(C(=O)NC2CCCCC2)CC1 (centres undefined)

>  <SYSTEM NAME>
HT-29

>  <pIC50>
5.47

$$$$
>  <COMPOUND>
COc1cc2c(Oc3ccc(NC(=O)NN4C(=O)CSC4c4ccc(F)cc4)cc3)ccnc2cc1OC1CCN(C(=O)NC(C)C)CC1 (centres undefined)

>  <SYSTEM NAME>
HT-29

>  <pIC50>
6.07

$$$$
>  <COMPOUND>
COc1cc2c(Oc3ccc(NC(=O)NN4C(=O)CSC4c4ccc(F)cc4)cc3)ccnc2cc1OC1CCN(C(=O)NCc2ccccc2)CC1 (centres undefined)

>  <SYSTEM NAME>
HT-29

>  <pIC50>
5.18

$$$$

Turning to the following compound.
Looking up COc1cc2c(Oc3ccc(NC(=O)NN4C(=O)CSC4c4ccc(F)cc4F)cc3)ccnc2cc1OC1CCN(C(=O)NC(C)C)CC1 (centres undefined) , I found its pIC50 recorded as 6.02

###

molecular target: Hepatocyte growth factor receptor (Homo sapiens, UniProt P08581); assay: Inhibition of c-Met (unknown origin) using FAM-labelled peptide and ATP incubated for 10 mins by mobility shift assay relative to control
Sequence (P08581 whole entry): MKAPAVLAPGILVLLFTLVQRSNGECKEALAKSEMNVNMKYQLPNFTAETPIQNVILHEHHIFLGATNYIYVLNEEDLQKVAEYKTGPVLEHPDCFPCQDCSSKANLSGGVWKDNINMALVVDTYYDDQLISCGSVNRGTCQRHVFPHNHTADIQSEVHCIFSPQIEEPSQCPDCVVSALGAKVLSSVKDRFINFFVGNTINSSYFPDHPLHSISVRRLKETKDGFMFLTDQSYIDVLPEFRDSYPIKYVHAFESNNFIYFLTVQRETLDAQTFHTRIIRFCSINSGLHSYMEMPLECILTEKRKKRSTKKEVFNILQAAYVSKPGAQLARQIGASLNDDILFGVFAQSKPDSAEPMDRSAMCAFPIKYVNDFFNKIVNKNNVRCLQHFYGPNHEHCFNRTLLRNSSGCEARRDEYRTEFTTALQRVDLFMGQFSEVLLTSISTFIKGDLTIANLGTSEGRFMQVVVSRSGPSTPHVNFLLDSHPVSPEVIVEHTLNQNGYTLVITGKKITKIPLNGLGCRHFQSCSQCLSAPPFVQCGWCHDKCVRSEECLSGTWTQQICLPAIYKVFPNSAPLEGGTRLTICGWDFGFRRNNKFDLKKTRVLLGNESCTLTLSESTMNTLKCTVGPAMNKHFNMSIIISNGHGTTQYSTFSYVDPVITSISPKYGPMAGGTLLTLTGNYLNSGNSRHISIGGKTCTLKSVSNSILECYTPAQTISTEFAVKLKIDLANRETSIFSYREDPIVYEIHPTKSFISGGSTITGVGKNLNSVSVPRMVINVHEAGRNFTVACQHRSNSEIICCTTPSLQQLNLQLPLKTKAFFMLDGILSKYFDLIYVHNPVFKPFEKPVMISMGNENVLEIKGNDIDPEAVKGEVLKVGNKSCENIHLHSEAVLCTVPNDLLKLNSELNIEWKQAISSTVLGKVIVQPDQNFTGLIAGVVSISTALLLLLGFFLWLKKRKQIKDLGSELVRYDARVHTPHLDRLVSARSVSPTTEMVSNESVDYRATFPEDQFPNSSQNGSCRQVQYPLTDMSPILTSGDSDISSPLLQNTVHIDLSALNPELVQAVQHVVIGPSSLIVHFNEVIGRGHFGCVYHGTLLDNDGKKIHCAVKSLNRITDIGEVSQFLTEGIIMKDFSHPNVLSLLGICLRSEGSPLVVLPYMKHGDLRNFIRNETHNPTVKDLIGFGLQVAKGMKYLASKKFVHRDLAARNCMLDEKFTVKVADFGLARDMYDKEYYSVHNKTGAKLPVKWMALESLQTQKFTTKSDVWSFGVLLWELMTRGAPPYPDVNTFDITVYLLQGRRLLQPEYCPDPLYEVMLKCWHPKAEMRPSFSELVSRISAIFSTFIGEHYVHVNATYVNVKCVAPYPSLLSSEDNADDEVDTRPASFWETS
METRIC NAME: IC50 (nM)
Only the number, expressed in nM, is required.

Looking up COc1cc2c(Oc3ccc(NC(=O)NN4C(=O)CSC4c4c(F)cccc4F)cc3)ccnc2cc1OC1CCN(C(=O)NC(C)C)CC1 (stereo unspecified) , I found its IC50 recorded as 382

###

test system: HT-29; assay: cells; conditions: Homo sapiens
METRIC NAME: pIC50
The scale used: pIC50 is minus the common logarithm of the concentration in molar units.

Looking up COc1cc2c(Sc3ccc(NC(=O)NN4C(=O)CSC4c4c(F)cccc4F)cc3)ccnc2cc1OC1CCN(C(=O)NC(C)C)CC1 (centres undefined) , I found its pIC50 recorded as 6.38

Looking up COc1cc2c(Oc3ccc(NC(=O)NN4C(=O)CSC4c4ccccc4)cc3)ccnc2cc1OC1CCN(C(=O)NC(C)C)CC1 (centres undefined) , I found its pIC50 recorded as 5.90

Looking up COc1cc2c(Sc3ccc(NC(=O)NN4C(=O)CSC4c4c(F)cccc4F)cc3)ccnc2cc1OCC1CCN(C(=O)NC(C)C)CC1 (centres undefined) , I found its pIC50 recorded as 6.41

Looking up COc1cc2c(Oc3ccc(NC(=O)NN4C(=O)CSC4c4c(F)cc(F)cc4F)cc3)ccnc2cc1OC1CCN(C(=O)NC(C)C)CC1 (centres undefined) , I found its pIC50 recorded as 6.04
